// provenance: PubChem BioAssay AID1117319

- Target Of Assay: Virion infectivity factor (Human immunodeficiency virus type 1 group M subtype B (isolate BH10)) + Virion infectivity factor (Human immunodeficiency virus type 1 group M subtype B (isolate BRU/LAI)) + Virion infectivity factor (Human immunodeficiency virus type 1 group M subtype B (isolate PCV12)) + Virion infectivity factor (Human immunodeficiency virus type 1 group M subtype B (isolate HXB2)) + DNA dC->dU-editing enzyme APOBEC-3G (Homo sapiens) (UniProt P69720+P69721+P69722+P69723+Q9HC16)
- Test: HIV-1 Vif–A3G interaction blockers – biochemical, TR-FRET, GST-Vif 1-94, biotin-A3G peptide, dose response retest, primary screen (AID 1117319);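 further: Vif residues 1-94 fused to GST binding biotinylated APOBEC3G peptide 110-148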
- Assay Setup: TR-FRET GST-Vif / biotin-A3G peptide binding
Results filed as inconclusive are left out.
Metric Name: pIC50
Answers are plain numbers, as −log10 of the molar value.

Worked cases, pIC50 given:
CCC(C)[C@@H](C(=O)Nc1ccc2c(c1)OCO2)N1Cc2ccccc2C1=O (stereo partly specified)	4.01
NS(=O)(=O)c1ccc(N=Nc2c[nH]c(=O)c(O)c2)cc1	5.39
O=C1NC(=O)N(Cc2ccc(F)cc2)C(=O)/C1=C\C=C\c1ccco1	4.72
CCCCC(=O)NC(=S)Nc1cc(C(=O)O)ccc1Cl	4.80

For each of the items listed, what is its pIC50?
1. COc1ccc(NCc2nc3ccccc3n2CCOc2ccccc2)cc1
2. NC(=O)c1c(NC(=O)Cc2cccs2)sc2c1CCC2
3. O=C(NN1C(=O)/C(=C/C=C/c2ccco2)SC1=S)c1ccncc1

4.31
4.31
5.63

For each of the items listed, what is its pIC50?
1. CCOc1ccc(N(CC(=O)NC(C)(C)C)S(=O)(=O)c2c(C)noc2C)cc1
2. Cc1cc(/C=N/Nc2ccc([N+](=O)[O-])cn2)c(C)n1-c1ccc(C(=O)O)cc1
3. O=C(CN1C(=O)NC2(CCCCCCC2)C1=O)NCc1cccs1
4. Cn1c2ccccc2c2ccc3c(c21)C(=O)C=CC3=O

5.29
5.49
4.96
4.62

---

Provide the recorded IC50 for the entries that follow.
- Target Of Assay: Virion infectivity factor (Human immunodeficiency virus type 1 group M subtype B (isolate BH10)) + Virion infectivity factor (Human immunodeficiency virus type 1 group M subtype B (isolate BRU/LAI)) + Virion infectivity factor (Human immunodeficiency virus type 1 group M subtype B (isolate PCV12)) + Virion infectivity factor (Human immunodeficiency virus type 1 group M subtype B (isolate HXB2)) + DNA dC->dU-editing enzyme APOBEC-3G (Homo sapiens) (UniProt P69720+P69721+P69722+P69723+Q9HC16)
- Test: HIV-1 Vif–A3G interaction blockers – biochemical, TR-FRET, GST-Vif 1-94, biotin-A3G peptide, dose response retest, primary screen (AID 1117319);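 further: Vif residues 1-94 fused to GST binding biotinylated APOBEC3G peptide 110-148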
- Assay Setup: TR-FRET GST-Vif / biotin-A3G peptide binding
Inconclusive results are not listed.

Worked cases, IC50 given:
O=C(Nc1nc(-c2ccco2)c(-c2ccco2)s1)C1CCC1	1.93 µM
O=c1oc(/C=C/c2ccco2)nc2sc3c(c12)CCC3	15.5 µM
Cc1onc(-c2c(F)cccc2Cl)c1C(=O)Nc1nnc(C2CC2)s1	10.7 µM
CCc1cccc(NC(=O)CCCCCC2NC(=O)NC2C)c1 (centres undefined)	0.47 µM
Cc1ccc(C)c(NC(=O)CN(C)C(=O)c2cccc(-n3cccc3)c2)c1	15.4 µM
O=C(c1cc(COc2cccc3cccnc23)on1)N1CCC[C@H]1CO	88.7 µM
NC(=O)Cn1c(=O)n(Cc2ccco2)c(=O)c2c3c(sc21)CCCCC3	3.8 µM
CN=c1scc(-c2cccs2)n1/N=C/c1ccc(O)c(O)c1O	1.95 µM
CCN(CC)c1ccc(NC(=O)CCS(=O)(=O)c2ccc(Br)cc2)c(C)c1	5.51 µM
COc1ccccc1C1CC(=O)Nc2c1c(=O)n(C)c(=O)n2C (centres undefined)	70.4 µM

For each of the items listed, what is its IC50?
1. NNc1ccc([N+](=O)[O-])c2[nH][nH]c(=O)c12
2. CC(C)c1ccc(S(=O)(=O)/N=C2/C=CC(=O)c3ccccc32)cc1
3. COC(=O)C(C)Sc1nnc(Cc2cc(=O)[nH]c(=O)[nH]2)n1-c1cc(C)ccc1C (centres undefined)
4. CCOC(=O)c1nn(-c2ccc(Cl)cc2Cl)c(=N)c(C#N)c1C

1.93 µM
5.36 µM
95.6 µM
12.7 µM

---

- Target Of Assay: Virion infectivity factor (Human immunodeficiency virus type 1 group M subtype B (isolate BH10)) + Virion infectivity factor (Human immunodeficiency virus type 1 group M subtype B (isolate BRU/LAI)) + Virion infectivity factor (Human immunodeficiency virus type 1 group M subtype B (isolate PCV12)) + Virion infectivity factor (Human immunodeficiency virus type 1 group M subtype B (isolate HXB2)) + DNA dC->dU-editing enzyme APOBEC-3G (Homo sapiens) (UniProt P69720+P69721+P69722+P69723+Q9HC16)
- Test: HIV-1 Vif–A3G interaction blockers – biochemical, TR-FRET, GST-Vif 1-94, biotin-A3G peptide, dose response retest, primary screen (AID 1117319);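 further: Vif residues 1-94 fused to GST binding biotinylated APOBEC3G peptide 110-148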
- Assay Setup: TR-FRET GST-Vif / biotin-A3G peptide binding
Results filed as inconclusive are left out.
Metric Name: IC50

Worked cases, IC50 given:
O=C1CCC/C(=N\NC(=O)c2ccc(COc3cccc4cccnc34)cc2)C1	17.1 µM
Cc1c(F)cccc1NC(=O)CCCCCC1NC(=O)NC1C (configuration not stated)	0.78 µM
CC1(C)CC(Nc2ccc(Nc3ccccc3)cc2)CC(C)(C)N1	7.13 µM
COC(=O)Cn1ncn2c(cc3oc(C)cc32)c1=O	71.6 µM

For each of the items listed, what is its IC50?
1. COC(=O)Cn1c(CCC(=O)O)ccc1-c1ccccc1
2. Cc1cc(C)c2c(c1)[C@@H]1C=CC[C@@H]1[C@H](c1ccc(S(=O)(=O)N3CCOCC3)cc1)N2
3. Oc1ccc(/C=C/c2cc(O)cc(O)c2)cc1
4. Cc1ccc2[nH]c(=O)c(C3C(C#N)=C(N)Oc4c3ccc3cccnc43)cc2c1 (configuration not stated)
5. CCn1cc(CNC(=O)c2ccc(Cl)c([N+](=O)[O-])c2)c(C)n1
6. CCOC(=O)CSc1nc2c(sc(=S)n2-c2ccccc2OC)c(=O)n1Cc1ccco1

12.5 µM
19.5 µM
25.3 µM
24.3 µM
15.7 µM
27.2 µM

---

Provide the recorded IC50 for the entries that follow.
- Target Of Assay: Virion infectivity factor (Human immunodeficiency virus type 1 group M subtype B (isolate BH10)) + Virion infectivity factor (Human immunodeficiency virus type 1 group M subtype B (isolate BRU/LAI)) + Virion infectivity factor (Human immunodeficiency virus type 1 group M subtype B (isolate PCV12)) + Virion infectivity factor (Human immunodeficiency virus type 1 group M subtype B (isolate HXB2)) + DNA dC->dU-editing enzyme APOBEC-3G (Homo sapiens) (UniProt P69720+P69721+P69722+P69723+Q9HC16)
- Test: HIV-1 Vif–A3G interaction blockers – biochemical, TR-FRET, GST-Vif 1-94, biotin-A3G peptide, dose response retest, primary screen (AID 1117319);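 further: Vif residues 1-94 fused to GST binding biotinylated APOBEC3G peptide 110-148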
- Assay Setup: TR-FRET GST-Vif / biotin-A3G peptide binding
Results filed as inconclusive are left out.

Worked cases, IC50 given:
CSc1nc(NCCOCCO)c2sc3nc(-c4ccco4)c4c(c3c2n1)CCC4	1.41 µM
COc1ccc(C(=O)N/N=C/C23CC[C@@H](O)CC2(O)CC[C@@H]2[C@@H]3CCC3(C)C(C4=CC(=O)OC4)CCC23O)cc1 (stereo partly specified)	86.3 µM
Cc1ccc(C)n1-c1cccc(C(=O)O)c1	0.72 µM
O=C1NC(=S)N(c2ccccc2)C(=O)/C1=C/c1ccco1	9.42 µM
O=C1CCCC(O)=C1N=Nc1ccc(C(=O)O)cc1	2.72 µM
NC(=O)c1cc(N)ccc1N1CCCC1	1.12 µM

For each of the items listed, what is its IC50?
1. COC(=O)C1=C(O)/C(=C\c2ccc(CNC(=O)C(=O)Nc3ccc(C)c(C)c3)o2)N=C1C
2. Cc1ccccc1NC(=O)CSc1nnc(-c2ccco2)c(-c2ccco2)n1

1: 34.1 µM; 2: 1.17 µM

For each of the items listed, what is its IC50?
1. CCCn1nc(C(=O)Nc2cc(C(=O)OC)ccc2C)c2ccccc2c1=O
2. COc1ccc(NC(=O)CCCSc2ccccc2)cc1
3. CC(C)NC[C@@H](O)c1ccc(O)c(O)c1

1: 86.5 µM; 2: 47.3 µM; 3: 4.93 µM

---

Provide the recorded IC50 for the entries that follow.
- Target Of Assay: Virion infectivity factor (Human immunodeficiency virus type 1 group M subtype B (isolate BH10)) + Virion infectivity factor (Human immunodeficiency virus type 1 group M subtype B (isolate BRU/LAI)) + Virion infectivity factor (Human immunodeficiency virus type 1 group M subtype B (isolate PCV12)) + Virion infectivity factor (Human immunodeficiency virus type 1 group M subtype B (isolate HXB2)) + DNA dC->dU-editing enzyme APOBEC-3G (Homo sapiens) (UniProt P69720+P69721+P69722+P69723+Q9HC16)
- Test: HIV-1 Vif–A3G interaction blockers – biochemical, TR-FRET, GST-Vif 1-94, biotin-A3G peptide, dose response retest, primary screen (AID 1117319);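 further: Vif residues 1-94 fused to GST binding biotinylated APOBEC3G peptide 110-148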
- Assay Setup: TR-FRET GST-Vif / biotin-A3G peptide binding
Records with an inconclusive call do not appear.

Worked cases, IC50 given:
CCN(CC)c1ccc2c(c1)CCCN2	1.17 µM
O=C1c2ccccc2CC1Sc1nnc(-c2ccccn2)o1 (stereo unspecified)	98.4 µM

For each of the items listed, what is its IC50?
1. CC1=CC(=Nc2c(C)n(C)n(-c3ccccc3)c2=O)C=CC1=O
2. Cc1cc(-c2n[nH]c(=S)n2/N=C/C=C/c2ccco2)n[nH]1
3. CC[n+]1c(/C=C2/C=C(C)CC(C)(C)C2)sc2ccc(OC)cc21
4. O=[n+]1c2c(n([O-])c3cc(Cl)ccc31)CCCC2

1: 5.02 µM; 2: 6.02 µM; 3: 21.7 µM; 4: 9.81 µM
